# EXPERIMENT_NOTES: Stability of the analytes in rat plasma QC samples
# Format: in vitro ADME
# CONDITION_SUMMARY: −20 °C for 21 d, low QC spiked concentration
OBSERVATION_TYPE: Long-tern stability: Measured concentration (ng/mL)

Example entries begin here.
- COMPOUND: "O=c1c(O)c(-c2ccc(O)c(O)c2)oc2cc(O)cc(O)c12"
  VALUE_UNIT: "ng/mL"
  RECORDED_VALUE: 2.72
- COMPOUND: "O=c1cc(-c2ccc(O)c(O)c2)oc2cc(O)cc(O)c12"
  VALUE_UNIT: "ng/mL"
  RECORDED_VALUE: 6.7
- COMPOUND: "C[C@@H]1O[C@@H](OC[C@H]2O[C@@H](Oc3c(-c4ccc(O)c(O)c4)oc4cc(O)cc(O)c4c3=O)[C@H](O)[C@@H](O)[C@@H]2O)[C@H](O)[C@H](O)[C@H]1O"
  VALUE_UNIT: "ng/mL"
  RECORDED_VALUE: 6.31
- COMPOUND: "O=c1cc(-c2ccc(O)cc2)oc2cc(O)cc(O)c12"
  VALUE_UNIT: "ng/mL"
  RECORDED_VALUE: 7.58

a = C[C@@H]1O[C@@H](O[C@@H]2[C@@H](O)[C@H](OCCc3ccc(O)c(O)c3)O[C@H](CO)[C@H]2OC(=O)/C=C/c2ccc(O)c(O)c2)[C@H](O)[C@H](O)[C@H]1O [Acteoside, acteoside]
b = COc1ccc(-c2cc(=O)c3c(O)cc(O)cc3o2)cc1
Ask: Pick one, a or b : lowest reported Long-tern stability: Measured concentration. Give the chosen item's label as your response.
Reply: a

# credit: paper PMC9037101
